Target: Integrin alpha-4/beta-1 (Homo sapiens, UniProt P05556+P13612)
Sequence (P05556 whole entry): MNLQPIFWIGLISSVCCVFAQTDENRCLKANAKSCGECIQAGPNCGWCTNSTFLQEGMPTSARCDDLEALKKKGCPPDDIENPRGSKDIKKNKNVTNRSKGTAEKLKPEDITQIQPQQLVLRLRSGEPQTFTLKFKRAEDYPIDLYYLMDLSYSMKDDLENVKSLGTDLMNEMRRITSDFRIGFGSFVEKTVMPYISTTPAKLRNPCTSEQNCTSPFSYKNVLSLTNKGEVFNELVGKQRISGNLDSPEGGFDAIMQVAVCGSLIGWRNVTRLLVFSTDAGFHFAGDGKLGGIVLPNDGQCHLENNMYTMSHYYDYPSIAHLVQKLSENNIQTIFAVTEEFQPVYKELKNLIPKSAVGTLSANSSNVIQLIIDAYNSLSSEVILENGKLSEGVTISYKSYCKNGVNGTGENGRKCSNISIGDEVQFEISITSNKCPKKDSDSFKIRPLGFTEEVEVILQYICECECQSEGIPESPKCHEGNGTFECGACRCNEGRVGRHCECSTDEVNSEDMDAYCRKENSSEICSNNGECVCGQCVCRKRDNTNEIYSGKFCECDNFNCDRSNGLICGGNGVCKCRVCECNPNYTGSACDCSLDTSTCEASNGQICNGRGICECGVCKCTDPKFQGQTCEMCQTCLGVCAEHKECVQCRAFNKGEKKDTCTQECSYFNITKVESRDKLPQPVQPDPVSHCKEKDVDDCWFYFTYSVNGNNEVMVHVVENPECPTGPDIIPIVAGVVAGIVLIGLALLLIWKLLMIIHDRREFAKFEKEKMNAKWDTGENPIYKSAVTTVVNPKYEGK
Sequence (P13612 whole entry): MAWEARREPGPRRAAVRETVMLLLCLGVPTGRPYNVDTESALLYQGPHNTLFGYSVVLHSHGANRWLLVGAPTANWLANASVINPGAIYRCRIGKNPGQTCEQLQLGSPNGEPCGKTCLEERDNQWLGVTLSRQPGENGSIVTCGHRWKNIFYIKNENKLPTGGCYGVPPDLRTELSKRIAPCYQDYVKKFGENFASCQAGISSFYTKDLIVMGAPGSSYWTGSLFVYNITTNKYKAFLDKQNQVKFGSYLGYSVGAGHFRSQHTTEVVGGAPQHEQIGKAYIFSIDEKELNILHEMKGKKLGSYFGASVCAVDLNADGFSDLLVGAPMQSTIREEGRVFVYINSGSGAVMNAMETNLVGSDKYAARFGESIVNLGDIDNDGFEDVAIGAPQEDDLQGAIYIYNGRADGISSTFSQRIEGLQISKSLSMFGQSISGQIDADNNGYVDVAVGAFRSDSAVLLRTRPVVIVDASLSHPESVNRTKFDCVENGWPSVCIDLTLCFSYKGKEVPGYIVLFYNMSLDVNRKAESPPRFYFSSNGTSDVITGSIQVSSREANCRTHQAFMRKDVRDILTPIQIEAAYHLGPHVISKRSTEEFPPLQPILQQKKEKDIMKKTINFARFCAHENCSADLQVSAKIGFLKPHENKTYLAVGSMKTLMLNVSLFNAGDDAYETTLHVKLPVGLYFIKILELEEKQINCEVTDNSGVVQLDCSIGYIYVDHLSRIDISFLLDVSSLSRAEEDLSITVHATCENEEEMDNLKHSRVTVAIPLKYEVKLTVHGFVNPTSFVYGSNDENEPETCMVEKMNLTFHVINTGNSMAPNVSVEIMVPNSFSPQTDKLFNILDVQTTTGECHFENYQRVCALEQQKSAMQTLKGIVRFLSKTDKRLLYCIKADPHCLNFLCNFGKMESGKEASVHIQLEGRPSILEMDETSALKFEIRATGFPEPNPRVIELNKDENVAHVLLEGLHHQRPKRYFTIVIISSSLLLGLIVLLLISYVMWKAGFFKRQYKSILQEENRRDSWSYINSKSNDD
Test: Inhibition of binding of Very late antigen 4/vascular cell adhesion molecule 1 in a protein-based ligand binding assay
Assay type: protein-complex assay
pIC50: −log10 of the molar value.
PROPERTY: pIC50

Use the examples below as a reference point.
CCC/N=c1\c(O)c(O)\c1=N/[C@@H](Cc1ccc(-c2ccccc2OC)cc1)C(=O)O    8.17
O=C(Nc1ccc(C[C@H](/N=c2/c(N3CCCCC3)c(O)c2=O)C(=O)O)cc1)c1c(Cl)cncc1Cl    9.40
CC/N=c1\c(O)c(O)\c1=N/[C@@H](Cc1ccc(NC(=O)c2c(Cl)cncc2Cl)cc1)C(=O)O    9.22
CCN1CCN(c2c(N[C@@H](Cc3ccc(NC(=O)c4c(Cl)cncc4Cl)cc3)C(=O)O)c(=O)c2=O)CC1    9.30

I = CCCC(C)/N=c1\c(O)c(O)\c1=N/[C@@H](Cc1ccc(NC(=O)c2c(Cl)cncc2Cl)cc1)C(=O)O (stereo not given in full)
II = O=C(Nc1ccc(C[C@H](/N=c2\c(O)c(O)\c2=N/C2CCCC2)C(=O)O)cc1)c1c(Cl)cncc1Cl
III = CCCCN(CCCC)c1c(N[C@@H](Cc2ccc(NC(=O)c3c(Cl)cncc3Cl)cc2)C(=O)O)c(=O)c1=O
IV = O=C(Nc1ccc(C[C@H](/N=c2\c(O)c(O)\c2=N/CCCC(F)(F)F)C(=O)O)cc1)c1c(Cl)cncc1Cl
Challenge: // sort entries: pIC50, high to low Hello, could you send the labels back in the order asked? Thank you.
Response given: I, IV, III, II
(I: 9.22, IV: 9.00, III: 8.70, II: 8.05)

I = C/N=c1\c(O)c(O)\c1=N/[C@@H](Cc1ccc(NC(=O)c2c(Cl)cncc2Cl)cc1)C(=O)O
II = CCC/N=c1\c(O)c(O)\c1=N/[C@@H](Cc1ccc(Oc2ncccn2)cc1)C(=O)O
Challenge: Which value of pIC50 is smaller, the one for I or the one for II ? Label of pick, please.
Response given: II
(II: 8.16, I: 9.05)

###

Molecular target: Integrin alpha-4/beta-1 (Homo sapiens, UniProt P05556+P13612)
Assay: Inhibition of binding of Very late antigen 4/vascular cell adhesion molecule 1 in a cell based ligand binding assay (Jurkat cells)
PROPERTY: IC50 (nM)

Use the examples below as a reference point.
CCCCC/N=c1\c(O)c(O)\c1=N/[C@@H](Cc1ccc(NC(=O)c2c(Cl)cncc2Cl)cc1)C(=O)O    225
C/N=c1\c(O)c(O)\c1=N/[C@@H](Cc1ccc(NC(=O)c2c(Cl)cncc2Cl)cc1)C(=O)O    990
O=C(Nc1ccc(C[C@H](/N=c2\c(O)c(O)\c2=N/Cc2ccccc2)C(=O)O)cc1)c1c(Cl)cncc1Cl    320
CCN(CC)c1c(N[C@@H](Cc2ccc(Oc3ncccn3)cc2)C(=O)O)c(=O)c1=O    2300
O=C(Nc1ccc(C[C@H](/N=c2\c(O)c(O)\c2=N/C2CCCC2)C(=O)O)cc1)c1c(Cl)cncc1Cl    290

a = O=C(Nc1ccc(C[C@H](/N=c2/c(N3CCOCC3)c(O)c2=O)C(=O)O)cc1)c1c(Cl)cncc1Cl
b = CCN(CC)c1c(N[C@@H](Cc2ccc(-c3c(OC)cccc3OC)cc2)C(=O)O)c(=O)c1=O
Challenge: Which value of IC50 is smaller, the one for a or the one for b ? Label of pick, please.
Response given: a
